Reported pEC50 by item:
# Test system: HeLa
# Assay name: Cytotoxicity against human HeLa cells assessed as decrease in cell viability after 72 hrs by MTS assay
# Format: functional, cell-based
Interpret pEC50 as the negative base-10 log of the concentration measured in mol/L.

Mol smiles | pEC50
CC1(C)[C@@H](OC(N)=O)[C@H]2O[C@H]2[C@]2(C=O)[C@H]3CC[C@]4(C)[C@@H](c5ccc(=O)oc5)[C@@H](Cl)C[C@]4(O)C3=CC[C@@H]12 | 8.29

Pending compound:
I have this compound here, `CC1(C)[C@@H](OC(N)=O)C=C[C@]2(C=O)[C@H]3CC[C@]4(C)[C@@H](c5ccc(=O)oc5)[C@@H](Cl)C[C@]4(O)C3=CC[C@@H]12` , and I need its recorded pEC50.
8.33

---

# Tested on: U-87 MG
# Assay name: Cytotoxicity against human U87MG cells assessed as decrease in cell viability after 72 hrs by MTS assay
# Type: functional, cell-based, U-87MG ATCC
Endpoint: EC50 (nM)
Dear colleague, please return just the value in nM, with no unit written.

I have this compound here, `CC1(C)[C@@H](OC(N)=O)[C@H]2O[C@H]2[C@]2(C=O)[C@H]3CC[C@]4(C)[C@@H](c5ccc(=O)oc5)[C@@H](Cl)C[C@]4(O)C3=CC[C@@H]12` , and I need its recorded EC50.
6.4

---

Reported pEC50 by item:
# Tested on: MCF7
# Assay name: Cytotoxicity against human MCF7 cells assessed as decrease in cell viability after 72 hrs by MTS assay
# Assay type: functional, cell-based
# Conditions: MCF7, 72 h
Interpret pEC50 as the negative base-10 log of the concentration measured in mol/L.

Before answering, review these 2 worked examples.
Compound | pEC50
CC1(C)[C@@H](OC(N)=O)[C@H]2O[C@H]2[C@]2(C=O)[C@H]3CC[C@]4(C)[C@@H](c5ccc(=O)oc5)[C@@H](Cl)C[C@]4(O)C3=CC[C@@H]12 | 7.82
CC1(C)[C@@H](OC(N)=O)C=C[C@]2(C=O)[C@H]3CC[C@]4(C)[C@@H](c5ccc(=O)oc5)[C@@H](Cl)C[C@]4(O)C3=CC[C@@H]12 | 7.82

I have this compound here, C[C@]12CC[C@H](O)C[C@H]1CC[C@@H]1[C@@H]2CC[C@]2(C)[C@@H](c3ccc(=O)oc3)CC[C@]12O [BUFALIN] , and I need its recorded pEC50.
7.38

// same read-out, input: `CC1(C)[C@H]2OC(=O)O[C@H]2[C@@H](O)[C@]2(C=O)[C@H]3CC[C@]4(C)[C@@H](c5ccc(=O)oc5)[C@@H](Cl)C[C@]4(O)C3=CC[C@@H]12`
6.02

---

Reported EC50 by item:
# System: MDA-MB-468
# Assay name: Cytotoxicity against human MDA-MB-468 cells assessed as decrease in cell viability after 72 hrs by MTS assay
# Type: functional, cell-based
# Conditions: MDA-MB-468, 72 h
Dear colleague, please return just the value in nM, with no unit written.

Mol smiles | Endpoint value
CC1(C)[C@@H](OC(N)=O)[C@H]2O[C@H]2[C@]2(C=O)[C@H]3CC[C@]4(C)[C@@H](c5ccc(=O)oc5)[C@@H](Cl)C[C@]4(O)C3=CC[C@@H]12 | 8.4

Pending compound:
Query EC50 on MDA-MB-468 for `CC1(C)[C@@H](OC(N)=O)C=C[C@]2(C=O)[C@H]3CC[C@]4(C)[C@@H](c5ccc(=O)oc5)[C@@H](Cl)C[C@]4(O)C3=CC[C@@H]12`
7

---

Reported pEC50 by item:
# Test system: MRC5
# Assay name: Cytotoxicity against human MRC5 cells assessed as decrease in cell viability after 72 hrs by MTS assay
# Assay type: cell-based
# Conditions: MRC5, 72 h
Interpret pEC50 as the negative base-10 log of the concentration measured in mol/L.

Mol smiles | pEC50
CC1(C)[C@@H](OC(N)=O)C=C[C@]2(C=O)[C@H]3CC[C@]4(C)[C@@H](c5ccc(=O)oc5)[C@@H](Cl)C[C@]4(O)C3=CC[C@@H]12 | 8.62

Pending compound:
I have this compound here, `CC1(C)[C@@H](OC(N)=O)[C@H]2O[C@H]2[C@]2(C=O)[C@H]3CC[C@]4(C)[C@@H](c5ccc(=O)oc5)[C@@H](Cl)C[C@]4(O)C3=CC[C@@H]12` , and I need its recorded pEC50.
8.57

---

# System: SK-OV-3
# Assay name: Cytotoxicity against human SKOV3 cells assessed as decrease in cell viability after 72 hrs by MTS assay
# Type: functional, cell-based
# Conditions: SK-OV-3, 72 h
Endpoint: EC50 (nM)
Dear colleague, please return just the value in nM, with no unit written.

Before answering, review these 3 worked examples.
Compound | EC50 / nM
CC1(C)[C@H]2OC(=O)O[C@H]2[C@@H](O)[C@]2(C=O)[C@H]3CC[C@]4(C)[C@@H](c5ccc(=O)oc5)[C@@H](Cl)C[C@]4(O)C3=CC[C@@H]12 | 530
CC1(C)[C@@H](OC(N)=O)C=C[C@]2(C=O)[C@H]3CC[C@]4(C)[C@@H](c5ccc(=O)oc5)[C@@H](Cl)C[C@]4(O)C3=CC[C@@H]12 | 6
C[C@]12CC[C@H](O)C[C@H]1CC[C@@H]1[C@@H]2CC[C@]2(C)[C@@H](c3ccc(=O)oc3)CC[C@]12O [BUFALIN] | 10

Pending compound:
I have this compound here, `CC1(C)[C@@H](OC(N)=O)[C@H]2O[C@H]2[C@]2(C=O)[C@H]3CC[C@]4(C)[C@@H](c5ccc(=O)oc5)[C@@H](Cl)C[C@]4(O)C3=CC[C@@H]12` , and I need its recorded EC50.
6.1

---

Reported EC50 by item:
# Tested on: PANC-1
# Assay name: Cytotoxicity against human PANC1 cells assessed as decrease in cell viability after 72 hrs by MTS assay
# Type: functional, cell-based
# Conditions: PANC-1, 72 h
Please answer using a numeric value trailed by its unit.

Mol smiles | EC50
CC1(C)[C@@H](OC(N)=O)C=C[C@]2(C=O)[C@H]3CC[C@]4(C)[C@@H](c5ccc(=O)oc5)[C@@H](Cl)C[C@]4(O)C3=CC[C@@H]12 | 2.1 nM

Pending molecule:
I have this molecule here, `CC1(C)[C@@H](OC(N)=O)[C@H]2O[C@H]2[C@]2(C=O)[C@H]3CC[C@]4(C)[C@@H](c5ccc(=O)oc5)[C@@H](Cl)C[C@]4(O)C3=CC[C@@H]12` , and I need its recorded EC50.
2.4 nM

---

Reported EC50 by item:
# System: HT-1080
# Assay name: Cytotoxicity against human HT1080 cells assessed as decrease in cell viability after 72 hrs by MTS assay
# Format: functional, cell-based
# Conditions: HT-1080, 72 h
Please answer using a numeric value trailed by its unit.

Mol smiles | Endpoint | Endpoint value
CC1(C)[C@@H](OC(N)=O)C=C[C@]2(C=O)[C@H]3CC[C@]4(C)[C@@H](c5ccc(=O)oc5)[C@@H](Cl)C[C@]4(O)C3=CC[C@@H]12 | EC50 | 5.4 nM

Pending molecule:
I have this molecule here, `CC1(C)[C@@H](OC(N)=O)[C@H]2O[C@H]2[C@]2(C=O)[C@H]3CC[C@]4(C)[C@@H](c5ccc(=O)oc5)[C@@H](Cl)C[C@]4(O)C3=CC[C@@H]12` , and I need its recorded EC50.
5.4 nM

---

# Test system: A549
# Assay name: Cytotoxicity against human A549 cells assessed as decrease in cell viability after 72 hrs by MTS assay
# Assay type: functional, cell-based
# Conditions: A549, 72 h
Endpoint: pEC50
Interpret pEC50 as the negative base-10 log of the concentration measured in mol/L.

Mol smiles | pEC50
CC1(C)[C@@H](OC(N)=O)C=C[C@]2(C=O)[C@H]3CC[C@]4(C)[C@@H](c5ccc(=O)oc5)[C@@H](Cl)C[C@]4(O)C3=CC[C@@H]12 | 8.43

Query pEC50 on A549 for `CC1(C)[C@@H](OC(N)=O)[C@H]2O[C@H]2[C@]2(C=O)[C@H]3CC[C@]4(C)[C@@H](c5ccc(=O)oc5)[C@@H](Cl)C[C@]4(O)C3=CC[C@@H]12`
8.42

---

# Test system: MES-SA/Dx5
# Assay name: Cytotoxicity against human MES-SA/Dx5 cells assessed as decrease in cell viability after 72 hrs by MTS assay
# Assay type: functional, cell-based
# Conditions: MES-SA/Dx5, 72 h
Endpoint: EC50 (nM)
Dear colleague, please return just the value in nM, with no unit written.

Mol smiles | EC50, nM
CC1(C)[C@@H](OC(N)=O)C=C[C@]2(C=O)[C@H]3CC[C@]4(C)[C@@H](c5ccc(=O)oc5)[C@@H](Cl)C[C@]4(O)C3=CC[C@@H]12 | 5.8
C[C@]12CC[C@H](O)C[C@H]1CC[C@@H]1[C@@H]2CC[C@]2(C)[C@@H](c3ccc(=O)oc3)CC[C@]12O | 18
CC1(C)[C@H]2OC(=O)O[C@H]2[C@@H](O)[C@]2(C=O)[C@H]3CC[C@]4(C)[C@@H](c5ccc(=O)oc5)[C@@H](Cl)C[C@]4(O)C3=CC[C@@H]12 | 720

Pending compound:
I have this compound here, `CC1(C)[C@@H](OC(N)=O)[C@H]2O[C@H]2[C@]2(C=O)[C@H]3CC[C@]4(C)[C@@H](c5ccc(=O)oc5)[C@@H](Cl)C[C@]4(O)C3=CC[C@@H]12` , and I need its recorded EC50.
5.7
